Experiment: Quantitative High-Throughput drug screen in 47 multiple myeloma cell lines against the NCATS MIPE library collection: KMS21BM_JCRB cell viability assay (AID 1918974); further: potency means the concentration at half of the fitted maximal effect
Settings: ATP luminescence, 48 h
Records with an inconclusive call do not appear. Active and inactive are the calls of the source. The call rests on the fitted dose curve; in most records, active means well fitted cell-killing curve with a large enough effect; inconclusive means small, poorly fitted or top-dose-only effect, or effect the other way; inactive means no such curve, though single readings can be large or run the other way.

[
  {
    "compound": "OC(CN1CCC(Cc2ccc(F)cc2)CC1)c1ccc(Cl)cc1 (stereo not drawn)",
    "Potency": "inactive"
  },
  {
    "compound": "S=C(NCc1ccc2c(c1)OCO2)N1CCN(c2ncnc3c2oc2ccccc23)CC1",
    "Potency": "1210 nM (active)"
  },
  {
    "compound": "c1ccc([C@H]2CN3CCSC3=N2)cc1",
    "Potency": "inactive"
  }
]

Where do these numbers come from? They come from PubChem BioAssay (NCATS).
